Biological target: AgrA (AgrAC, C-terminal DNA binding domain) (Staphylococcus aureus)
Sequence (P0A0I7 137-238): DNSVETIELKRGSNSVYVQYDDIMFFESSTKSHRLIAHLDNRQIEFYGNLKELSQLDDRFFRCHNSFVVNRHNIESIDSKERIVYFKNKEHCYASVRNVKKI
Test: EMSA with purified AgrAC and FAM-labeled […] bp DNA duplex; supported by AgrA-driven agr::P3 lux reporter in agr-null S. aureus
MEASUREMENT_TYPE: pIC50
The scale used: pIC50 is minus the common logarithm of the concentration in molar units.

Incoming: What value of measured pIC50 is listed for CC(C)c1ccc(S(=O)(=O)c2n[nH]n3c2nc(=O)c2ccccc23)cc1 ?
Outgoing: 4.08
